assay: Phase 1a pharmacokinetics in healthy volunteers, single IV administration; type: in vivo, human; details: human, plasma, intravenous, 0.025 mg/kg; read-out: area under the plasma concentration-time curve to infinity (AUCinf)
quantityName: AUC(0-inf) (ng·h/mL)
Numbers only, in ng·h/mL.

Challenge: Recorded AUC(0-inf) of CC1(C)C(=CC=C2CCCC(C=CC3=[N+](CCCCS(=O)(=O)[O-])c4ccc(S(=O)(=O)O)cc4C3(C)C)=C2Oc2ccc(CC(NC(=O)c3ccc(NCc4cnc5nc(N)[nH]c(=O)c5n4)cc3)C(=O)O)cc2)N(CCCCS(=O)(=O)O)c2ccc(S(=O)(=O)O)cc21 (stereo not shown) [pafolacianine] , please.
Response given: 63.6

* * *

assay: Phase 1a pharmacokinetics in healthy volunteers, single IV administration; format: in vivo, human; conditions: human, plasma, intravenous, 0.2 mg/kg, with pre-treatment of antihistamine (clemastine); read-out: CL (converted)
quantityName: clearance (mL/min)
Give bare numbers, in mL/min.

Challenge: Recorded clearance of CC1(C)C(=CC=C2CCCC(C=CC3=[N+](CCCCS(=O)(=O)[O-])c4ccc(S(=O)(=O)O)cc4C3(C)C)=C2Oc2ccc(CC(NC(=O)c3ccc(NCc4cnc5nc(N)[nH]c(=O)c5n4)cc3)C(=O)O)cc2)N(CCCCS(=O)(=O)O)c2ccc(S(=O)(=O)O)cc21 (stereo not shown) [pafolacianine] , please.
Response given: 170

* * *

test: Repeat once-weekly IV dose toxicokinetics in dogs; format: in vivo; conditions: male, dog, in vivo, iv, 0.9 mg/kg, dogs M, 0.9 mg/kg once-weekly IV, Day 13; read-out: Vss
quantityName: Vd
State the value with its unit after it.

Challenge: Recorded Vd of CC1(C)C(=CC=C2CCCC(C=CC3=[N+](CCCCS(=O)(=O)[O-])c4ccc(S(=O)(=O)O)cc4C3(C)C)=C2Oc2ccc(CC(NC(=O)c3ccc(NCc4cnc5nc(N)[nH]c(=O)c5n4)cc3)C(=O)O)cc2)N(CCCCS(=O)(=O)O)c2ccc(S(=O)(=O)O)cc21 (stereo not shown) [pafolacianine] , please.
Response given: 2.42 L/kg

* * *

assay: Phase 1a pharmacokinetics in healthy volunteers, single IV administration; assay type: in vivo, human; conditions: human, plasma, intravenous, 0.025 mg/kg, in 20 ml 0.9% NaCl, 10- and 60-min infusion; read-out: AUC0-inf
quantityName: AUC(0-inf) (ng·h/mL)
Answers are plain numbers, in ng·h/mL.

Challenge: Recorded AUC(0-inf) of CC1(C)C(=CC=C2CCCC(C=CC3=[N+](CCCCS(=O)(=O)[O-])c4ccc(S(=O)(=O)O)cc4C3(C)C)=C2Oc2ccc(CC(NC(=O)c3ccc(NCc4cnc5nc(N)[nH]c(=O)c5n4)cc3)C(=O)O)cc2)N(CCCCS(=O)(=O)O)c2ccc(S(=O)(=O)O)cc21 (stereo not shown) [pafolacianine] , please.
Response given: 66.4

* * *

assay: Single IV dose toxicokinetics in dogs; assay type: in vivo; conditions: dog, in vivo; male dogs, 0.9 mg/kg single IV, Study Day 0, N = 2
quantityName: C0
State the value with its unit after it.

Challenge: Recorded C0 of CC1(C)C(=CC=C2CCCC(C=CC3=[N+](CCCCS(=O)(=O)[O-])c4ccc(S(=O)(=O)O)cc4C3(C)C)=C2Oc2ccc(CC(NC(=O)c3ccc(NCc4cnc5nc(N)[nH]c(=O)c5n4)cc3)C(=O)O)cc2)N(CCCCS(=O)(=O)O)c2ccc(S(=O)(=O)O)cc21 (stereo not shown) , please.
Response given: 3790 ng/mL
